Source listed as a melting point compilation (Tetko et al.; mined from patent text by program, amines drawn as free bases though some values may be those of a salt).

MEASURED ATTRIBUTE: melting point

// query Returns the measured melting point for the input compound. Input: CC(C)(C)COc1ccc(N(CC(=O)O)C(=O)c2cnn(-c3ccc(F)cc3)c2)cc1C#N
// result 274 to 275 °C

// query Can you handle COC(=O)Cc1cc2c(cc1CC(=O)NCCc1ccc(OC)c(OC)c1)OCO2 next?
// result 122 to 125 °C

// query Same question, OCc1cn(-c2ccccc2)nc1-c1ccc(Cl)cc1 this time
// result 141 to 142 °C

// query Input CC(C(=O)O)c1ccc(-c2ccccc2)cc1 (stereo unspecified)
// result 144 to 145 °C

// query Same question for O=C1C(=O)c2ccc(-c3ccncc3)cc2C2=C1SCC1(CCN(C(=O)c3cccc(Cl)c3)CC1)O2 please.
// result 265 to 267 °C
